These entries and their values trace back to patent US7996156B2.

- Tested on: estrogen receptor (Rattus norvegicus, UniProt P06211)
- Construct: in rat uterine cytosol, which was obtained from ovariectomized uteri of Sprague-Dawley rats; from tissue; host or cells: uterine cytosol of ovariectomized Sprague-Dawley rats
- Sequence (P06211 1-600): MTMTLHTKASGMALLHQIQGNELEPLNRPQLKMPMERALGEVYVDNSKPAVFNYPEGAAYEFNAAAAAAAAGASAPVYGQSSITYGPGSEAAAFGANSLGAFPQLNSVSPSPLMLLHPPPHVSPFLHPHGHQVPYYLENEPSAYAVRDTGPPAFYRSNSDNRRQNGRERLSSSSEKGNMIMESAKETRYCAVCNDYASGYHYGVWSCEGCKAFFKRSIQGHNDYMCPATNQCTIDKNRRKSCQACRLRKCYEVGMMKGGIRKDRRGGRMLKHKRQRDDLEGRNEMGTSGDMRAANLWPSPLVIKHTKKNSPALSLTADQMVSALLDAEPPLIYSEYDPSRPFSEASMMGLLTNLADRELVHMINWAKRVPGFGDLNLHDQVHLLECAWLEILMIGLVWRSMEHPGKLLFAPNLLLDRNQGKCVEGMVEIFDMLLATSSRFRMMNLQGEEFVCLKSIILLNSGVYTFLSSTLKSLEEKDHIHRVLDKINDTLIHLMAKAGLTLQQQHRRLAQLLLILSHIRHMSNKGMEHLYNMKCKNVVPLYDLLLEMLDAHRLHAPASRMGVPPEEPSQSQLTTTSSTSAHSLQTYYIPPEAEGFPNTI
- Experimental protocol: Competitive ER binding assay with [3H]E2 in rat uterine cytosol (NCTR)
# key: entry, value: Exp. Log(RBA)
Measured endpoint: Exp. Log(RBA)

> print(dat)
                                    compound  recorded.value
 1                   Clc1ccc(-c2ccccc2Cl)cc1           −3.61
 2                O=C(/C=C/c1ccccc1)c1ccccc1           −2.82
 3                       CC(C)(C)c1ccc(O)cc1           −3.61
 4  CC[C@H](c1ccc(O)cc1)[C@@H](CC)c1ccc(O)cc1            2.48
 5  O=c1c(O)c(-c2cc(O)c(O)c(O)c2)oc2cc(O)cc(O)c12           −2.75
 6  C[C@]12CC[C@@H](O)C[C@@H]1CC[C@@H]1[C@@H]2CC[C@]2(C)[C@@H](O)CC[C@@H]12           −2.67
 7  C[C@]12CC[C@@H]3c4cc(O)c(O)cc4CC[C@H]3[C@@H]1CC[C@@H]2O [2-hydroxyestradiol]            1.47
 8                Oc1ccc(-c2cc(Cl)ccc2Cl)cc1           −1.44
 9                   CCCCCCCCCCCCc1ccc(O)cc1           −1.73
10  CC/C(=C(/c1ccc(OCCN(C)C)cc1)c1cccc(O)c1)c1ccccc1            1.18
11     COc1cc(O)c2c(=O)c(-c3ccc(O)cc3)coc2c1           −2.74
12      CC(CCC(=O)O)(c1ccc(O)cc1)c1ccc(O)cc1           −3.13
13                     Oc1ccc(OCc2ccccc2)cc1           −3.44
14     C/C=C(/C(=C/C)c1ccc(O)cc1)c1ccc(O)cc1            1.57
15  O=C1C=CC(=C(c2ccc(O)cc2)c2ccc(O)cc2)C=C1            −1.5
16      O=c1cc(-c2ccccc2)oc2cc(O)c(O)c(O)c12           −3.35
17                      Oc1ccc(-c2ccccc2)cc1           −3.04
18  COc1cc(C(=C(Cl)Cl)c2ccc(O)cc2)ccc1O [dihydroxymethoxychlorolefin]            0.42
19  C[C@]12CC[C@@H]3c4ccc(O)cc4C[C@@H](CCCCCCCCC[S+]([O-])CCCC(F)(F)C(F)(F)F)[C@H]3[C@@H]1CC[C@@H]2O (stereo partly shown)            1.57
